Assay Target: JAK2 (Homo sapiens, UniProt O60674)
Construct: endogenous in cells
Sequence (O60674 whole entry): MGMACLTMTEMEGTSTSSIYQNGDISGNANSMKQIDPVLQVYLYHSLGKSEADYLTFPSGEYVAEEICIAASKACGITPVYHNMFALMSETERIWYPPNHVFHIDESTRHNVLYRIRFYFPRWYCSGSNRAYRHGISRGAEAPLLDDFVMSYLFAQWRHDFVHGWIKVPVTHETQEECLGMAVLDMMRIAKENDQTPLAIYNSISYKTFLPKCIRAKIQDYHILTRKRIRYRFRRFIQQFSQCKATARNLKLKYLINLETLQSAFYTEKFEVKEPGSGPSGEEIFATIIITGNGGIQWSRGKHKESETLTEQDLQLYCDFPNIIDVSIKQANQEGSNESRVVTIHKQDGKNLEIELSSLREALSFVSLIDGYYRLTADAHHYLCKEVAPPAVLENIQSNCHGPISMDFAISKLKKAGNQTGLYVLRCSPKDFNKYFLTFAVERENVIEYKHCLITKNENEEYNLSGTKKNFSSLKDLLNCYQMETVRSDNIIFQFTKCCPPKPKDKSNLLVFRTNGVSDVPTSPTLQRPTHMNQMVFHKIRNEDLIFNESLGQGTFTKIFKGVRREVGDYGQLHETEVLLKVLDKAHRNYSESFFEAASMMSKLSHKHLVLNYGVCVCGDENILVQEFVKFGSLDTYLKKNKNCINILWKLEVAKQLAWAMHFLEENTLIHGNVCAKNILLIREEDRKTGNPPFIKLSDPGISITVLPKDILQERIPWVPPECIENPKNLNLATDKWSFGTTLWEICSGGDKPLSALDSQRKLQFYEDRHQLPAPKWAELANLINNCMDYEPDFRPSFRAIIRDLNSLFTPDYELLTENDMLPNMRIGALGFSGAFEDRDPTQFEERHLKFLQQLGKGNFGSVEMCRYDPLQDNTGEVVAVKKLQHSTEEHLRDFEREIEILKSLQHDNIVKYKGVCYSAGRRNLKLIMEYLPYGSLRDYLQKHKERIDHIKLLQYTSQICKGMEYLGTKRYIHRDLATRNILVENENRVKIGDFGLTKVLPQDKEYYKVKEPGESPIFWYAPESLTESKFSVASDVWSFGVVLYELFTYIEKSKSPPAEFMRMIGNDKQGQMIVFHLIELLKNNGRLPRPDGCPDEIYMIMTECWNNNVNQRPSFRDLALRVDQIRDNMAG
Experimental Details: Kinobeads assay, JAK2 (competition binding in mixed Molt4/Ramos cell lysate, dot blot detection)
Condition Set: read-out: JAK2 Band (Kinobeads assay potency, IC50)
This section presents molecules with their documented IC50 values.
Measured Attribute: IC50

> print(dat)
                                    molecule  experimental.result
 1  Cc1cnc(Nc2cnn(CCO)c2)nc1NCc1ccccc1S(C)(=O)=O           1 to 10 µM
 2  Cc1cnc(Nc2cnn(CC(=O)N3CCOCC3)c2)nc1NCc1ccccc1           1 to 10 µM
 3  CN(C)C(=O)Cn1cc(Nc2ncc(F)c(NCc3c(F)ccc(F)c3F)n2)cn1           1 to 10 µM
 4  N#Cc1cccc(CNc2nc(Nc3cnn(CCO)c3)ncc2Cl)c1          0.1 to 1 µM
 5   Cc1cnc(Nc2cnn(C)c2)nc1NCc1cc(F)cc(F)c1F       0.01 to 0.1 µM
 6  C[C@@H](CO)NC(=O)Cn1cc(Nc2nccc(NCc3c(Cl)ccc(Cl)c3F)n2)cn1          0.1 to 1 µM
 7  CC(O)Cn1cc(Nc2ncc(Cl)c(NCc3ccccc3)n2)cn1 (centres unmarked)           1 to 10 µM
 8  Cc1cnc(Nc2cnn(CC(=O)N(C)C)c2)nc1NCc1ccccc1           1 to 10 µM
 9  CC(C)(C)NC(=O)Cn1cc(Nc2nccc(NCc3c(F)cc(F)cc3F)n2)cn1              > 10 µM
10  CC(C)NC(=O)Cn1cc(Nc2ncc(F)c(NCc3c(F)cccc3F)n2)cn1           1 to 10 µM
11  CC(C)CNC(=O)Cn1cc(Nc2ncc(Cl)c(NCc3cccc(OC(F)F)c3)n2)cn1           1 to 10 µM
12  Cc1cccc(F)c1CNc1ccnc(Nc2cnn(CC(=O)NC(C)C)c2)n1           1 to 10 µM
13  O=C(Cn1cc(Nc2nccc(NCc3c(F)cccc3F)n2)cn1)NC1CC1           1 to 10 µM
14  Cn1cc(Nc2ncc(Cl)c(NCc3cc(F)cc(C(F)(F)F)c3)n2)cn1           1 to 10 µM
15  Cc1cnc(Nc2cnn(CC(=O)NC(C)C)c2)nc1NCc1c(F)cc(F)cc1F           1 to 10 µM
16  NC(=O)Cn1cc(Nc2ncc(F)c(NCc3c(F)cc(F)cc3F)n2)cn1           1 to 10 µM
17  CS(=O)(=O)c1ccc(F)c(CNc2nc(Nc3cnn(CC(N)=O)c3)ncc2F)c1           1 to 10 µM
18  NC(=O)Cn1cc(Nc2ncc(Cl)c(NCc3cc(Br)cc(F)c3F)n2)cn1          0.1 to 1 µM
19  C[C@H](CO)NC(=O)Cn1cc(Nc2nccc(NCc3c(F)cccc3F)n2)cn1           1 to 10 µM
20  Cn1cc(Nc2ncc(Cl)c(NCc3cc(C(F)(F)F)ccc3F)n2)cn1           1 to 10 µM
21  CC(O)Cn1cc(Nc2ncc(Cl)c(NCc3cccc(F)c3)n2)cn1 (centres unmarked)           1 to 10 µM
22      Cn1cc(Nc2ncc(Cl)c(NCc3cccnc3F)n2)cn1          0.1 to 1 µM
23  O=C(Cn1cc(Nc2nccc(NCc3c(F)cccc3Cl)n2)cn1)N[C@@H]1C[C@@H]1F           1 to 10 µM
24    Cn1cc(Nc2ncc(F)c(NCc3cccc(F)c3F)n2)cn1           1 to 10 µM
25  Cc1cnc(Nc2cnn(CC(=O)N(C)C)c2)nc1NCc1cc(F)cc(C(F)(F)F)c1           1 to 10 µM
26  OCCn1cc(Nc2ncc(Cl)c(NCc3c(F)cccc3-c3cn[nH]c3)n2)cn1           1 to 10 µM
27    Cn1cc(Nc2nccc(NCc3c(F)cc(F)cc3F)n2)cn1              > 10 µM
28  CNC(=O)Cn1cc(Nc2ncc(C)c(NCc3c(F)cccc3F)n2)cn1          0.1 to 1 µM
29  COc1ccc(F)c(CNc2nc(Nc3cnn(CC(=O)N(C)C)c3)ncc2F)c1F           1 to 10 µM
30  CS(=O)(=O)c1ccc(F)c(CNc2nc(Nc3cn[nH]c3)ncc2Cl)c1          0.1 to 1 µM
31  O=C(Cn1cc(Nc2nccc(NCc3c(F)cccc3F)n2)cn1)N1CCOCC1           1 to 10 µM
32  CNS(=O)(=O)c1ccccc1CNc1nc(Nc2cnn(C)c2)ncc1Cl          0.1 to 1 µM
33  COc1ccc(F)c(CNc2nc(Nc3cnn(CC(=O)N4CCOCC4)c3)ncc2C)c1F          0.1 to 1 µM
34  N#Cc1c(F)cccc1CNc1nc(Nc2cnn(CC(N)=O)c2)ncc1Cl          0.1 to 1 µM
35  Cc1cnc(Nc2cnn(CC(=O)NC3CC3)c2)nc1NCc1cc(F)cc(F)c1F          0.1 to 1 µM
